- EXPERIMENTAL TARGET: UniProtKB Q9NR96
- TEST DETAILS: TLR9 inhibition reporter assay (HEK-Blue SEAP reporter, ODN2006 stimulation)
- DETAILS: read-out: TLR9 IC50; HEK-Blue cells overexpressing human TLR9, ODN2006 5 nM, SEAP reporter
MEASURED PROPERTY: IC50 (nM)

MOLECULE: Cc1cc(-c2[nH]c3ccc(C(C)(C)C(=O)NC4CN5CCC4CC5)cc3c2C(C)C)ccn1 (stereo not shown)
EXPERIMENTAL TARGET: UniProtKB Q9NR96
IC50 [nM]: 790

A: Cc1cc(-c2[nH]c3ccc(C(=O)N4CC5CNCC5C4)cc3c2CC(F)F)cc(C)n1 (stereo not shown)
B: CCc1c(-c2ccc(OC)c(OC)c2)[nH]c2ccc(C(=O)N(C)CCCN(C)C)cc12
C: Cc1cc(-c2[nH]c3ccc(C(C)C(=O)NC4CCC5CNCC54)cc3c2C(C)C)ccn1 (stereo not shown) [Example 186]
Sort low-to-high on IC50, please. As an answer, provide the labels arranged in the order called for.
C, A, B

* * *

- EXPERIMENTAL TARGET: human TLR9 (Homo sapiens (Human))
- Sequence (Q9NR96 26-1032): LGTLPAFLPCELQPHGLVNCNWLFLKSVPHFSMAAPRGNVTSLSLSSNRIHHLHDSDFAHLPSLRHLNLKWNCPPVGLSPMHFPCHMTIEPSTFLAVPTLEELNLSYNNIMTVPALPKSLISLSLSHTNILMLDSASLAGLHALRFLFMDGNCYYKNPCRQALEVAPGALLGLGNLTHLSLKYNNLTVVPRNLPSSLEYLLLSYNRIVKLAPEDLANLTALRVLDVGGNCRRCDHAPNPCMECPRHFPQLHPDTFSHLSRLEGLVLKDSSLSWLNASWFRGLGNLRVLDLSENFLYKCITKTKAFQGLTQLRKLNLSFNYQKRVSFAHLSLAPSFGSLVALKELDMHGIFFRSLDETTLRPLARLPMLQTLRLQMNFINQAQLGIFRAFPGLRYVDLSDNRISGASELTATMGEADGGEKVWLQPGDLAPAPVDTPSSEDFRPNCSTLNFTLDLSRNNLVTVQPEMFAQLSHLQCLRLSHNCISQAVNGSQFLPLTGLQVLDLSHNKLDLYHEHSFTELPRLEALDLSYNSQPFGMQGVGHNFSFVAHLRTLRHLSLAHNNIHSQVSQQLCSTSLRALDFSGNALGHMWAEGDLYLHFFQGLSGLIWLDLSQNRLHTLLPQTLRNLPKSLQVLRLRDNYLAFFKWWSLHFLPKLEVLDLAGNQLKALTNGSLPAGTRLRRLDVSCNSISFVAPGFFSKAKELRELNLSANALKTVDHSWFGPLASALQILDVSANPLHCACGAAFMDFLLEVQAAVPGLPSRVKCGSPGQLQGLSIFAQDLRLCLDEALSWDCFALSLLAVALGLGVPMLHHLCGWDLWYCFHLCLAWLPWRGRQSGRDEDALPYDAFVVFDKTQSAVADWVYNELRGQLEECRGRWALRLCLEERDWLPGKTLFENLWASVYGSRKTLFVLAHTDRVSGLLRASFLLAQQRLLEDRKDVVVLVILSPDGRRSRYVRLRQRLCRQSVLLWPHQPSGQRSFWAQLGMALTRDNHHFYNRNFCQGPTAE
- TEST DETAILS: TLR9 inhibition reporter assay (HEK-Blue SEAP reporter, ODN2006 stimulation);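 further: SEAP reporter under IFN-β minimal promoter with five NF-κB and AP-1 sites, 22 h incubation, compounds 0.05 nM–50 µM, inhibition relative to agonist plus DMSO versus known inhibitor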
- DETAILS: read-out: TLR9 IC50; HEK-Blue cells overexpressing human TLR9, ODN2006 5 nM, SEAP reporter
pIC50: −log10 of the molar value.
MEASURED PROPERTY: pIC50

COMPOUND: COc1ccc(-c2[nH]c3ccc(C(=O)N4CC5CN(C)CC5C4)cc3c2C(C)C)cc1OC (stereo not drawn)
pIC50: 5.67
//
COMPOUND: Cc1cc(-c2[nH]c3ccc(C(C)(C)C(=O)NC[C@H]4CC[C@H](N)CC4)cc3c2C(C)C)ccn1
pIC50: 5.74
//
COMPOUND: CCc1c(-c2ccnc(C)c2)[nH]c2ccc(C(=O)N3CC4CN(C(C)C)CC4C3)cc12 (stereo not drawn)
pIC50: 5.80

a: Cc1cc(-c2[nH]c3ccc(C(C)C(=O)N4CCCC(CCN)C4)cc3c2C(C)C)ccn1 (stereo not drawn)
b: Cc1cc(-c2[nH]c3ccc(C(=O)N4CCNCC4)cc3c2C(C)C)cc(C)n1
c: CCc1c(-c2ccc(OC)c(OC)c2)[nH]c2ccc(C(=O)N(C)CCc3ccccn3)cc12
d: CNCC(=O)N1CC2CN(C(=O)c3ccc4[nH]c(-c5ccc(OC)c(OC)c5)c(C(C)C)c4c3)CC2C1 (stereo not drawn)
Sort low-to-high on pIC50, please. As an answer, provide the labels arranged in the order called for.
c, d, a, b
(c: 4.50, d: 5.40, a: 6.16, b: 6.61)

* * *

- EXPERIMENTAL TARGET: UniProtKB Q9NR97
- Sequence (Q9NR97 27-1041): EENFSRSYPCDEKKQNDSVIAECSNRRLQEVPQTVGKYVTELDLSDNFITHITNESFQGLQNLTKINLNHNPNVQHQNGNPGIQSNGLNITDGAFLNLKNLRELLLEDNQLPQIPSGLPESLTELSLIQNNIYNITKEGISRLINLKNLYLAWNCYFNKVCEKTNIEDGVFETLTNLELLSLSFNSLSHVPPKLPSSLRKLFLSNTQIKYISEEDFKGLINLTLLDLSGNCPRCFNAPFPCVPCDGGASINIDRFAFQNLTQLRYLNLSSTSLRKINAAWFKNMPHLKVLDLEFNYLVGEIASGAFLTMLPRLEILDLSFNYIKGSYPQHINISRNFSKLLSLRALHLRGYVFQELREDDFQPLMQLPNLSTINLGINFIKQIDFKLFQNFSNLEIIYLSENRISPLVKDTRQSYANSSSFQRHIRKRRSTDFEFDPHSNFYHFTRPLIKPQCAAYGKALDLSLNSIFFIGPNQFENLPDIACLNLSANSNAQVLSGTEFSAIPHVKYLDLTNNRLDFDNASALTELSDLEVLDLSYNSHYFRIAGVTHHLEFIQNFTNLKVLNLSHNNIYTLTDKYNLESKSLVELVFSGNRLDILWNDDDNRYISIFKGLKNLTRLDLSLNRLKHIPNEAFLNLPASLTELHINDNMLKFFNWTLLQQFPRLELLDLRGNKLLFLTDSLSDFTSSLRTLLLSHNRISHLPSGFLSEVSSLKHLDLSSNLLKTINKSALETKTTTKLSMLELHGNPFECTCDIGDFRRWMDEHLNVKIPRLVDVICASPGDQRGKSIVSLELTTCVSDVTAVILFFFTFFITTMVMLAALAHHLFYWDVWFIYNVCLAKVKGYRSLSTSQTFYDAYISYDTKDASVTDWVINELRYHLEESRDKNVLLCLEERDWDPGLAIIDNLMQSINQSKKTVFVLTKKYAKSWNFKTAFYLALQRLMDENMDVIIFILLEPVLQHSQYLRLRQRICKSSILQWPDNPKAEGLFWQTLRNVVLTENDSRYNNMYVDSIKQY
- TEST DETAILS: TLR8 inhibition reporter assay (HEK-Blue SEAP reporter, R848 stimulation);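 further: SEAP driven by IFN-β minimal promoter with NF-κB and AP-1 sites, 22 h incubation, compounds 0.05 nM–50 µM, inhibition scaled between agonist plus DMSO and reference inhibitor wells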
- DETAILS: read-out: TLR8 IC50; HEK-Blue cells overexpressing human TLR8, R848 15.9 μM, SEAP reporter
pIC50: −log10 of the molar value.
MEASURED PROPERTY: pIC50

COMPOUND: Cc1cc(-c2[nH]c3ccc(C(C)C(=O)N(C)C4CN5CCC4CC5)cc3c2C(C)C)ccn1 (stereo not drawn) [Example 211]
pIC50: 7.29

1: Cc1cc(-c2[nH]c3ccc(C(C)C(=O)NC[C@@H](F)C(C)(C)O)cc3c2C(C)C)ccn1 (stereo partly drawn) [Example 130]
2: CCc1c(-c2ccc(OC)c(OC)c2)[nH]c2ccc(C(=O)NCCCN3CCN(C)CC3)cc12 [Example 55]
Compare 1 and 2 and name the one whose reported pIC50 is smaller. Please identify the chosen entry by its label.
1
